target: T1, HER3 extracellular domain recombinant protein (human, UniProt P21860 20-643); experiment: SPR, ProteOn XPR36; antibody captured by goat anti-human antibody, HER3 extracellular domain 1.25-20 nM as analyte, Langmuir model
T1 construct: extracellular domain; also called HER3 extracellular domain protein; HER3 protein
T1 sequence (P21860 20-643): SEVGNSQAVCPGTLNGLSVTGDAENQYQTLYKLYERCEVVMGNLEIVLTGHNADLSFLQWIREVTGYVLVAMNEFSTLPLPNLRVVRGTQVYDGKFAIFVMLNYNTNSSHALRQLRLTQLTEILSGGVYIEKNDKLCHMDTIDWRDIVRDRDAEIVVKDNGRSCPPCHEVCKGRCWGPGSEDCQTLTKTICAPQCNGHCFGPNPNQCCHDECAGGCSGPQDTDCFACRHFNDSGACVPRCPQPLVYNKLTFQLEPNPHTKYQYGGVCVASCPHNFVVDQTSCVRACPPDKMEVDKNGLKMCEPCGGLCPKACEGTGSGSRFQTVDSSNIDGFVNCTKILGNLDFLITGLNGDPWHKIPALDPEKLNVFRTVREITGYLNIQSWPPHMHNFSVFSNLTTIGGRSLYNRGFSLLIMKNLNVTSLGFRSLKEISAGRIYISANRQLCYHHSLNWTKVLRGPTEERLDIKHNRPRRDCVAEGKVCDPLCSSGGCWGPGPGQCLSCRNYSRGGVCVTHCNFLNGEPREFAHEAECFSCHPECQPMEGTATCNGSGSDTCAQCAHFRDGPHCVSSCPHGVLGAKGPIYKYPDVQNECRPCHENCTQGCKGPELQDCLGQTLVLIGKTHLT
EXPERIMENTAL_READOUT: Kd

These solved cases illustrate the format of a correct answer.
{"BINDER": "humanized antibody with VH25 back mutation (antibody, V domains shown) VH: QVQLVQSGAEVKKPGSSVKVSCKATGGTFSNYWIDWVRQAPGQGLEWMGEILPGSGGTDYNEKFKGRVTITADTSTSTAYMELSSLRSEDTAVYYCARDDYDVFAYWGQGTLVTVSS VL: DIVMTQSPGTLSLSPGERATLSCRSSKSLLHSNGITYLYWYQQKPGQAPRLLIYQMSNLASGIPDRFSGSGSGTDFTLTISRLEPEDFAVYYCAQNLELPWTFGQGTKVEIKR", "Kd": "6.02 nM"}
{"BINDER": "humanized antibody with VH76 back mutation (antibody, V domains shown) VH: QVQLVQSGAEVKKPGSSVKVSCKASGGTFSNYWIDWVRQAPGQGLEWMGEILPGSGGTDYNEKFKGRVTITADTSSSTAYMELSSLRSEDTAVYYCARDDYDVFAYWGQGTLVTVSS VL: DIVMTQSPGTLSLSPGERATLSCRSSKSLLHSNGITYLYWYQQKPGQAPRLLIYQMSNLASGIPDRFSGSGSGTDFTLTISRLEPEDFAVYYCAQNLELPWTFGQGTKVEIKR", "Kd": "6.49 nM"}
{"BINDER": "humanized antibody with VH1 back mutation (antibody, V domains shown) VH: EVQLVQSGAEVKKPGSSVKVSCKASGGTFSNYWIDWVRQAPGQGLEWMGEILPGSGGTDYNEKFKGRVTITADTSTSTAYMELSSLRSEDTAVYYCARDDYDVFAYWGQGTLVTVSS VL: DIVMTQSPGTLSLSPGERATLSCRSSKSLLHSNGITYLYWYQQKPGQAPRLLIYQMSNLASGIPDRFSGSGSGTDFTLTISRLEPEDFAVYYCAQNLELPWTFGQGTKVEIKR", "Kd": "9.14 nM"}

So what does the record say about Kd for humanized antibody h1044-0 (antibody, V domains shown, also called humanized h1044-0 antibody after CDR transplantation) VH: QVQLVQSGAEVKKPGSSVKVSCKASGGTFSNYWIDWVRQAPGQGLEWMGEILPGSGGTDYNEKFKGRVTITADTSTSTAYMELSSLRSEDTAVYYCARDDYDVFAYWGQGTLVTVSS VL: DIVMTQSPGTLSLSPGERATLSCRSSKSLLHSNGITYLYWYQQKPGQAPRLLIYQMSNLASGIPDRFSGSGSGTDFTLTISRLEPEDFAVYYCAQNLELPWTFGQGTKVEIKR ?
8.48 nM

Which Kd is listed for humanized antibody with VH77 back mutation (antibody, V domains shown) VH: QVQLVQSGAEVKKPGSSVKVSCKASGGTFSNYWIDWVRQAPGQGLEWMGEILPGSGGTDYNEKFKGRVTITADTSTNTAYMELSSLRSEDTAVYYCARDDYDVFAYWGQGTLVTVSS VL: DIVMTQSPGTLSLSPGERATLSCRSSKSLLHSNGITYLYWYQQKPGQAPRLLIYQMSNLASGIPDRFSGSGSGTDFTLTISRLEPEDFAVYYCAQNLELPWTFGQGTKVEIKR ?
7.07 nM

Need Kd, item 1044 human-mouse chimeric antibody (antibody, V domains shown) VH: EVQLQQSGTELMKPGASVKISCKATGGTFSNYWIDWVKQRPGHGLEWIGEILPGSGGTDYNEKFKGKATFTADTSSNTAYMQLSSLTSEDSAVYYCARDDYDVFAYWGQGTLVTVSA VL: DIVMTQAAFSNPVTLGTSASISCRSSKSLLHSNGITYLYWYLQKPGQSPQLLIYQMSNLASGVPDRFSSSGSGTDFTLRISRVEAEDVGVYYCAQNLELPWTFGGGTKLEIKR
0.262 nM
